All figures here come from paper PMC6154603.

# procedure summary: In vivo pharmacokinetic study of FLJ-FF herb couple preparations with or without COS
# Design: species or system rats
# details: rat, po, AUC (Control)
assay metric: AUC (ng·h/mL)
Numbers only, in ng·h/mL.

O=C(/C=C/c1ccc(O)c(O)c1)O[C@@H]1C[C@](O)(C(=O)O)C[C@@H](OC(=O)/C=C/c2ccc(O)c(O)c2)[C@H]1O; 57.7

Query: Please give the measured AUC for this molecule: O=C(/C=C/c1ccc(O)c(O)c1)O[C@@H]1C[C@](O)(C(=O)O)C[C@@H](O)[C@H]1O
Result: 638

====

# procedure summary: Pharmacokinetics of caffeic acid derivatives after oral administration of the FLJ-FF herb couple
# Parameters: species or system rats
# details: rat, in vivo
assay metric: AUC(0-t) (ng·h/mL)
Answers are plain numbers, in ng·h/mL.

O=C(C=Cc1ccc(O)c(O)c1)OC1CC(O)(C(=O)O)CC(O)C1OC(=O)C=Cc1ccc(O)c(O)c1 (centres unmarked); 141
O=C(/C=C/c1ccc(O)c(O)c1)O[C@@H]1C[C@](O)(C(=O)O)C[C@@H](OC(=O)/C=C/c2ccc(O)c(O)c2)[C@H]1O; 53.1
O=C(C=Cc1ccc(O)c(O)c1)OC1C(O)CC(O)(C(=O)O)CC1O (centres unmarked); 713
O=C(/C=C/c1ccc(O)c(O)c1)O[C@@H]1C[C@](O)(C(=O)O)C[C@@H](O)[C@H]1O; 3220

Query: Please look up its AUC(0-t): O=C(C=Cc1ccc(O)c(O)c1)OC1CC(O)(C(=O)O)CC(O)C1O (centres unmarked)
Result: 579

====

# procedure summary: Pharmacokinetics of caffeic acid derivatives after oral administration of the FLJ-FF herb couple
# Parameters: species or system rats
# details: rat, in vivo
assay metric: Tmax (min)
Give bare numbers, in min.

Need Tmax for each of these compounds.
1. O=C(C=Cc1ccc(O)c(O)c1)OC1C(O)CC(O)(C(=O)O)CC1O (stereo not shown) [Cryptochlorogenic acid, cryptochlorogenic acid]
2. O=C(C=Cc1ccc(O)c(O)c1)OC1CC(O)(C(=O)O)CC(O)C1O (stereo not shown) [Neochlorogenic acid]
3. O=C(/C=C/c1ccc(O)c(O)c1)O[C@@H]1C[C@](O)(C(=O)O)C[C@@H](OC(=O)/C=C/c2ccc(O)c(O)c2)[C@H]1O [3,5-dicaffeoylquinic acid]

Result:
1. 10
2. 10
3. 10.00

Query: So what does the record say about Tmax for O=C(C=Cc1ccc(O)c(O)c1)OC1CC(O)(C(=O)O)CC(O)C1OC(=O)C=Cc1ccc(O)c(O)c1 (stereo not shown) [3,4-dicaffeoylquinic acid] ?
Result: 10
